- Tested on: VDR homodimer (NR concentration 270 nM)
- EXPERIMENT_SUMMARY: PBM binding z-score (relative to random genomic background probes); higher = stronger binding; sequences stand for … in GC…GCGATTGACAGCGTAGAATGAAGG
Is PBM binding z-score at least -0.2? Then TRUE. If not, FALSE.

SEQUENCE_DATA	CAT
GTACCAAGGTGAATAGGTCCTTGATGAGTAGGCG	FALSE
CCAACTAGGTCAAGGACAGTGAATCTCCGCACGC	TRUE
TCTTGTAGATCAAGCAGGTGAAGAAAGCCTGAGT	TRUE
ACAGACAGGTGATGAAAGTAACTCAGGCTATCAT	FALSE
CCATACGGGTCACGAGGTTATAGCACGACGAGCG	TRUE
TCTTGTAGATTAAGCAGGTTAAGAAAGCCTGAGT	TRUE
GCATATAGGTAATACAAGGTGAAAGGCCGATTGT	TRUE
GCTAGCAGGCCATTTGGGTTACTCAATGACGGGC	FALSE
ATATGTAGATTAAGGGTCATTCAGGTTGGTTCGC	TRUE
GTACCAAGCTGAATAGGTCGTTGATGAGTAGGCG	FALSE
TCGAGTAGGTTACCAATGGGGGATTCAGCTTTCT	TRUE
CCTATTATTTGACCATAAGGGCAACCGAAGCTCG	TRUE
